The measured values listed here are drawn from patent US9828396B2.

Record: pIC50 reported on UniProt:P00746.
Sequence (P00746 26-253): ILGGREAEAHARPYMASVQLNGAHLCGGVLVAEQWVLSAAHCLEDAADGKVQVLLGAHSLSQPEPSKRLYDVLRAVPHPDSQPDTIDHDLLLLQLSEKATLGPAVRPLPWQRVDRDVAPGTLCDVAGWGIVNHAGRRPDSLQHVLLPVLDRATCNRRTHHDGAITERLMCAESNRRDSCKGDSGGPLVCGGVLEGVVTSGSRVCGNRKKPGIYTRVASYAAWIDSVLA
pIC50: −log10 of the molar value.

{"molecule": "NC(=O)c1nn(CC(=O)N2C[C@H](F)C[C@H]2C(=O)Nc2cccc(Br)n2)c2ccc(C#Cc3ncc(F)cn3)cc12 [Compound 46]", "target.desc": "UniProt:P00746", "pIC50": "> 6.00"}
{"molecule": "NC(=O)c1nn(CC(=O)N2C[C@H](F)C[C@H]2C(=O)NCc2cccc(Cl)c2F)c2ccc(C#Cc3ncccn3)cc12 [Compound 20]", "target.desc": "UniProt:P00746", "pIC50": "> 6.00"}
{"molecule": "NC(=O)c1nn(CC(=O)N2C[C@H](F)C[C@H]2C(=O)Nc2cccc(-c3ccccc3Cl)c2F)c2ccc(C#Cc3ccnnc3)cc12 [Compound 79]", "target.desc": "UniProt:P00746", "pIC50": "> 6.00"}
{"molecule": "CC(=O)c1cn(CC(=O)N2[C@@H]3C[C@@H]3C[C@H]2C(=O)Nc2cccc(Br)n2)c2ccc(C#Cc3ncccn3)cc12 [Compound 21]", "target.desc": "UniProt:P00746", "pIC50": "> 6.00"}
{"molecule": "NC(=O)c1nn(CC(=O)N2C[C@H](F)C[C@H]2C(=O)NCc2cccc(Cl)c2F)c2ccc(C#Cc3ccccn3)cc12 [Compound 23]", "target.desc": "UniProt:P00746", "pIC50": "> 6.00"}
{"molecule": "Cc1cnc(C#Cc2ccc3c(c2)c(C(N)=O)nn3CC(=O)N2C[C@H](F)C[C@H]2C(=O)Nc2cccc(Br)n2)nc1 [Compound 91]", "target.desc": "UniProt:P00746", "pIC50": "> 6.00"}
{"molecule": "NC(=O)c1nn(CC(=O)N2C[C@H](F)C[C@H]2C(=O)Nc2cccc(Br)n2)c2ccc(C#Cc3ccccn3)cc12 [Compound 48]", "target.desc": "UniProt:P00746", "pIC50": "> 6.00"}
{"molecule": "CC(=O)c1cn(CC(=O)N2C[C@H](F)C[C@H]2C(=O)NCc2cccc(Cl)c2F)c2ccc(C#Cc3ncccn3)cc12 [Compound 9]", "target.desc": "UniProt:P00746", "pIC50": "> 6.00"}
{"molecule": "NC(=O)c1nn(CC(=O)N2CC[C@@H](O)[C@H]2C(=O)NCc2cccc(Cl)c2F)c2ccc(C#Cc3ncccn3)cc12 [Compound 52]", "target.desc": "UniProt:P00746", "pIC50": "> 6.00"}
{"molecule": "NC(=O)c1nn(CC(=O)N2C[C@H](F)C[C@H]2C(=O)Nc2cccc(-c3cccc(Cl)c3)c2F)c2ccc(C#Cc3ncccn3)cc12 [Compound 30]", "target.desc": "UniProt:P00746", "pIC50": "> 6.00"}
{"molecule": "O=C(O)C#Cc1ccc2c(C(=O)C(F)(F)F)cn(CC(=O)N3C[C@H](F)C[C@H]3C(=O)NCc3cccc(Cl)c3F)c2c1 [Compound 11]", "target.desc": "UniProt:P00746", "pIC50": "> 6.00"}
{"molecule": "NC(=O)c1nn(CC(=O)N2[C@@H]3C[C@@H]3C[C@H]2C(=O)Nc2ccn(CC(F)(F)F)n2)c2ccc(C#Cc3ncc(F)cn3)cc12 [Compound 72]", "target.desc": "UniProt:P00746", "pIC50": "> 6.00"}
{"molecule": "CC(=O)c1nn(CC(=O)N2C[C@H](F)C[C@H]2C(=O)Nc2cccc(Br)n2)c2ccc(C#Cc3ncc(F)cn3)cc12 [Compound 90]", "target.desc": "UniProt:P00746", "pIC50": "> 6.00"}
{"molecule": "NC(=O)c1nn(CC(=O)N2C[C@H](F)C[C@H]2C(=O)Nc2cccc(-c3ccc(F)cc3Cl)c2F)c2ccc(C#Cc3ncccn3)cc12 [Compound 49]", "target.desc": "UniProt:P00746", "pIC50": "> 6.00"}
{"molecule": "NC(=O)c1nn(CC(=O)N2C[C@H](F)C[C@H]2C(=O)Nc2cncc(Br)c2)c2ccc(C#Cc3ncc(F)cn3)cc12 [Compound 68]", "target.desc": "UniProt:P00746", "pIC50": "> 6.00"}
{"molecule": "CC(=O)c1cn(CC(=O)N2C[C@H](F)C[C@H]2C(=O)NCc2cccc(Cl)c2F)c2ccc(C#Cc3ncc(O)cn3)cc12 [Compound 13]", "target.desc": "UniProt:P00746", "pIC50": "> 6.00"}
